Cited source: patent US7211573B2

Reported melting point by item:

Here's what some known entries look like.
>>> print(df.to_string())
                                   molecule  observed_result
0  C[C@H](OC(=O)NCC(F)(F)C(F)(F)F)C(=O)N[C@@H]1C(=O)N(C)c2cc(F)ccc2O[C@@H]1C    148 to 150 °C
1  Cc1cccc2c1OC[C@H](NC(=O)C(C)C(=O)NCC(F)(F)C(F)(F)F)C(=O)N2C (stereo partly drawn) [Example 10b]           107 °C
2  CC(C(=O)NCC(F)(F)C(F)(F)F)C(=O)N[C@@H]1C(=O)Nc2cc(F)ccc2O[C@@H]1C (stereo partly drawn)    215 to 216 °C
3  CC(C(=O)NCC(F)(F)C(F)(F)F)C(=O)N[C@@H]1C(=O)N(C)c2cc(F)ccc2O[C@@H]1C (stereo partly drawn)    126 to 134 °C
4  CCN1C(=O)[C@@H](NC(=O)C(C)C(=O)NCC(F)(F)C(F)(F)F)COc2ccccc21 (stereo partly drawn)           152 °C

Next, consider the following molecule.
Please report the recorded melting point for CC(C(=O)NCC(F)(F)C(F)(F)F)C(=O)N[C@@H]1C(=O)N(C)c2c(F)cccc2O[C@@H]1C (stereo partly drawn) .
126 to 134 °C
